Experiment: Cellular Toxicity (caspase-3) Hek293 (AID 664);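 further: cells exposed to compound for 16 h at 37 °C before readout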
Conditions: HEK293 caspase-3 activation
Results filed as inconclusive are left out. Active and inactive are the calls of the source. The call rests on the fitted dose curve; in most records, active means well fitted activation curve with a large enough effect; inconclusive means small, poorly fitted or top-dose-only effect; inactive means flat fitted curve, though single readings scatter.
VALUE KIND: Potency

COMPOUND: Cc1ccc(-c2cc(C(F)(F)F)nn2-c2ccc(S(N)(=O)=O)cc2)cc1
RESULT: inactive
--
COMPOUND: NCCS(=O)(=O)O
RESULT: inactive
--
COMPOUND: CC(C)C(=O)Nc1ccc([N+](=O)[O-])c(C(F)(F)F)c1
RESULT: inactive
--
COMPOUND: COc1ccc2c(c1)c(CC(=O)O)c(C)n2C(=O)c1ccc(Cl)cc1
RESULT: inactive
--
COMPOUND: Cn1c(=O)c2[nH]cnc2n(C)c1=O
RESULT: inactive

*Q* Can you look up the measured Potency of Nc1ccn([C@H]2CC[C@@H](CO)O2)c(=O)n1 for me?
*A* inactive

*Q* Which value of Potency has been reported for COc1ccc(CCN(C)CCCC(C#N)(c2ccc(OC)c(OC)c2)C(C)C)cc1OC (centres undefined) in the records?
*A* inactive

*Q* Potency lookup needed for COc1cc2c(c(OC)c1OC)-c1ccc(OC)c(=O)cc1[C@@H](NC(C)=O)CC2 , thanks.
*A* inactive

*Q* Would you mind telling me what Potency value was observed for N[C@@H](Cc1c[nH]c2ccc(O)cc12)C(=O)O ?
*A* inactive

*Q* Query (compound): O=c1[nH]cc(F)c(=O)[nH]1 ; field requested: Potency
*A* inactive

---

Test system: DFO2036
Experiment: qHTS profiling for inhibitors of Plasmodium falciparum proliferation (AID 504749); further: nearly all actives have a fitted effect of over 60% in size; further: potency means the concentration at half of the fitted maximal effect
Details: P. falciparum in erythrocytes, SYBR Green DNA, 72 h; series mostly up to 28.7 µM
Inconclusive results are not listed. Calls of active or inactive are those of the source. Calls follow the shape of the dose curve; as a rule, active = well fitted inhibition curve with a large enough effect; inconclusive = small, poorly fitted or top-dose-only effect; inactive = flat fitted curve, though single readings scatter.
VALUE KIND: Potency

For orientation, consider the following solved cases.
COMPOUND: CC12CC3CC(C)(C1)CC(N)(C3)C2
Potency: inactive

COMPOUND: COc1ccccc1N1CCN(CC(O)COc2cccc3ccccc23)CC1 (configuration not stated)
Potency: inactive

COMPOUND: NC12CC3CC(CC(C3)C1)C2
Potency: inactive

COMPOUND: COc1cc2c(c(OC)c1OC)-c1ccc(OC)c(=O)cc1[C@@H](NC(C)=O)CC2
Potency: inactive

*Q* Reported Potency, compound CC(CCc1ccc(O)cc1)NCCc1ccc(O)c(O)c1 (configuration not stated) : ____
*A* inactive

*Q* So what does the record say about Potency for CC[C@@]1(O)C(=O)OCc2c1cc1n(c2=O)Cc2cc3c(CN(C)C)c(O)ccc3nc2-1 ?
*A* 5.62 µM (active)

*Q* Endpoint output: Potency of Cc1cn([C@H]2C[C@H](N=[N+]=[N-])[C@@H](CO)O2)c(=O)[nH]c1=O . Value?
*A* inactive

*Q* Give the measured Potency of NC(=O)OCC(COC(N)=O)c1ccccc1 .
*A* inactive

*Q* Fill in: Potency of NCCc1cnc[nH]1 is ___
*A* inactive

*Q* Potency lookup needed for OCCN1CCN(CCCN2c3ccccc3Sc3ccc(C(F)(F)F)cc32)CC1 , thanks.
*A* 7.08 µM (active)

*Q* What value of measured Potency is listed for N[C@@H](Cc1c[nH]c2ccc(O)cc12)C(=O)O ?
*A* inactive

*Q* Any idea what Potency was measured for O=C(c1ccc(F)cc1)C1CCN(CCn2c(=O)[nH]c3ccccc3c2=O)CC1 ?
*A* inactive
